# protein stability index values compiled below
B1: NECAB1 (parent)
chain: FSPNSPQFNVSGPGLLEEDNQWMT

- Variants of: B1
- Protocol: protein stability index of a GFP-peptide fusion (GPS, HEK-293T) (PSI 1-6); higher = more stable;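 also: lentivirally expressed fusions sorted by FACS into six bins by GFP to DsRed ratio, PSI derived from sequencing read proportions per bin multiplied by bin number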
- Measurement setup: c terminus: a fixed tail appended
Observation type: protein stability index

Mutation code: S2T
Reading: 2.23
//
Mutation code: G14A
Reading: 3.44
//
Mutation code: F8I
Reading: 3.26
//
Mutation code: G12T
Reading: 3.22
//
Mutation code: D19F
Reading: 2.12
//
Mutation code: L16M
Reading: 2.66
//
Mutation code: Q7D
Reading: 4.25
//
Mutation code: F1A
Reading: 4.01
//
Mutation code: S2I
Reading: 1.76
//
Mutation code: L15P
Reading: 2.98
//
Mutation code: F8C
Reading: 3.42
//
Mutation code: N9E
Reading: 3.77
//
Mutation code: E17R
Reading: 2.86
//
Mutation code: P3E
Reading: 3.71
//
Mutation code: E17C
Reading: 2.04
//
Mutation code: D19E
Reading: 2.78
//
Mutation code: P3F
Reading: 2.59
//
Mutation code: L16T
Reading: 3.53
//
Mutation code: Q7R
Reading: 2.07
//
Mutation code: S5C
Reading: 3
//
Mutation code: F8V
Reading: 3.61
//
Mutation code: G12H
Reading: 2.62
//
Mutation code: P13T
Reading: 3.32
//
Mutation code: Q7A
Reading: 1.92
//
Mutation code: S5K
Reading: 2.82
//
Mutation code: E18G
Reading: 2.02
//
Mutation code: P6L
Reading: 2.51
//
Mutation code: Q7S
Reading: 2.66
//
Mutation code: G12Q
Reading: 3.04
//
Mutation code: P6Y
Reading: 1.92
//
Mutation code: N9S
Reading: 2.84
//
Mutation code: S5V
Reading: 2.75
//
Mutation code: G12N
Reading: 2.77
//
Mutation code: W22H
Reading: 3.84
//
Mutation code: S2R
Reading: 3.65
//
Mutation code: P6S
Reading: 2.62
//
Mutation code: M23T
Reading: 3
//
Mutation code: S5N
Reading: 3.03
//
Mutation code: P3A
Reading: 3.26
//
Mutation code: S5T
Reading: 2.98
//
Mutation code: T24F
Reading: 1.88
//
Mutation code: D19G
Reading: 2.33
//
Mutation code: S11R
Reading: 2.62
//
Mutation code: T24L
Reading: 3
//
Mutation code: F1K
Reading: 4.43
//
Mutation code: L16C
Reading: 3.03
//
Mutation code: N4V
Reading: 3.03
//
Mutation code: W22N
Reading: 4.07
//
Mutation code: S5F
Reading: 2
//
Mutation code: W22F
Reading: 3.59
//
Mutation code: Q21R
Reading: 2.28
//
Mutation code: F1R
Reading: 4.33
//
Mutation code: P13I
Reading: 3.27
//
Mutation code: G12W
Reading: 1.74
//
Mutation code: V10T
Reading: 2.89
//
Mutation code: P6G
Reading: 2.34
//
Mutation code: P13Q
Reading: 3.12
//
Mutation code: E18T
Reading: 2.23
//
Mutation code: F1G
Reading: 4.4
//
Mutation code: F8H
Reading: 3.77
//
Mutation code: W22C
Reading: 4.1
//
Mutation code: T24D
Reading: 3.57
//
Mutation code: S5H
Reading: 3.16
//
Mutation code: G12Y
Reading: 2.14
//
Mutation code: T24S
Reading: 3.27
//
Mutation code: V10H
Reading: 3.63
//
Mutation code: F1M
Reading: 4.7
//
Mutation code: L15E
Reading: 3.46
//
Mutation code: F8D
Reading: 4.15
//
Mutation code: F1H
Reading: 4.23
//
Mutation code: D19C
Reading: 2.72
